// provenance: paper PMC9788509

Test system: Escherichia coli (ML35)
Format: cell-based
Details: E. coli ML35; 1 × 10^7 CFU/mL; 1% TSB, 10 mM Hepes; 10, 20 and 30 μM peptide, 1 h at 37 °C; serial dilution, 18 h at 37 °C in complete TSB; turbidity; duplicate
Method: The strains used, Staphylococcus aureus (ATCC 25923) and Escherichia coli (ML35), were obtained from the Public Health Institute of Chile (ISP). To determine the antibacterial activity of the peptides, a microplate dilution test was performed. […] Finally, a serial dilution was performed and incubated for 18 h at 37 °C in complete TSB, and the minimum bactericidal concentration (MCB) was determined depending on the turbidity of the plate. […]
No end group written: not given here.
Exercise: for every item that follows, state its recorded Minimum Bactericidal Concentration.
Could you give me the number in µM? Just the number is fine.

Exercise: Could you share which Minimum Bactericidal Concentration value was measured for RRRRRRRLRRR-NH2 [L8] ?
Solution: 18

Exercise: Also RRRRRRRWRRR-NH2 [W8] , if possible.
Solution: 20

Exercise: Also RLRRRRRRRRR-NH2 [L2] , if possible.
Solution: 8

Exercise: Also RRRRWRRRRRR-NH2 [W5] , if possible.
Solution: 20

Exercise: Also RRRRRWRRRRR-NH2 [W6] , if possible.
Solution: 15

Exercise: Also RRRRRRRRRPR-NH2 [P10] , if possible.
Solution: 30

Exercise: Also RRRRRRRRRWR-NH2 [W10] , if possible.
Solution: 20

Exercise: Also RARRRRRRRRR-NH2 [A2] , if possible.
Solution: 18

Exercise: Also RRLRRRRRRRR-NH2 [L3] , if possible.
Solution: 10

Exercise: Also RRRRRRRRWRR-NH2 [W9] , if possible.
Solution: 20

Exercise: Also RRRRRRRRRLR-NH2 [L10] , if possible.
Solution: 20

Exercise: Also RRARRRRRRRR-NH2 [A3] , if possible.
Solution: 10

Exercise: Also RRRRRRRARRR-NH2 [A8] , if possible.
Solution: 30
